System: NCI-H322M lung
Test: NCI-60 one-dose screen, 48 h
Details: 10 µM unless noted
About 83,000 compounds went through this panel and 20% of them were active in at least one assay; those are over-represented in the sample as a whole. Calls of active or inactive are those of the source. Rule for the calls: active = growth percent below 10; inactive = the rest.
Classes used: t = active, f = inactive

compound: CC1OC(O[C@H]2/C=C/C=C/C=C/C=C/C=C/C=C/C=C/[C@H](C)[C@@H](O)[C@@H](C)[C@H](C)OC(=O)CC(O)CC(O)CCC(O)C(O)CC(O)C[C@]3(O)C[C@H](O)C(C(=O)O)C(C2)O3)C(O)[C@H](N)C1O (stereo partly drawn)
answer-label: f
--
compound: CCc1ccccc1-n1c(-c2ccc(Cl)cc2)cc(-c2ccc(Cl)cc2)c(C#N)c1=O
answer-label: f
--
compound: O=C(Cc1ccc(F)c(F)c1)Nc1cc(C2(C(F)(F)F)CC2)nn1Cc1ccccc1
answer-label: f
--
compound: CCCCNC(=O)Oc1ccc2c(=O)c3sc4c(=O)c5ccccc5c(=O)c4c3c(=O)c2c1
answer-label: t
--
compound: COc1ccccc1CNCCCN1C(=O)c2ccc3c4c(ccc(c24)C1=O)C(=O)N(CCCNCCCCN)C3=O
answer-label: t
--
compound: COc1cccc(C(=O)NCCCNc2cc(-c3cn(-c4ccccc4)nc3-c3cccc(OC)c3)ccn2)c1
answer-label: f
--
compound: CCOC(=O)c1c2ncccc2n2c(=O)n(-c3ccccc3C)nnc12
answer-label: f
--
compound: C=CCSc1nc2ccccc2cc1/C=N/O
answer-label: f

---

Tested on: SNB-19 CNS
Assay: NCI-60 one-dose screen, 48 h
Settings: 10 µM unless noted
The panel holds about 83,000 compounds, 20% with a hit somewhere; the sample as a whole holds those more often. The source made the active and inactive calls. The calls were made as follows: active = growth percent below 10; inactive = the rest.
Classes used: 1.0 (active), 0.0 (inactive)

compound: Cc1ccc(S(=O)(=O)NCC[C@@H]2C[C@H]2c2cc3ccccc3s2)cc1
answer-label: 0.0
--
compound: CCCCCCCC/C=C\CCCCCCCCOc1ccccc1CC(=O)NCC[N+](C)(C)C
answer-label: 0.0
--
compound: CCN(CC)CCN1C(=O)c2c(c(C)c3c(oc4cc(O)ccc43)c2C)C1=O
answer-label: 1.0
--
compound: CCCCCCN(CCCCCC)c1ccc(/C=C2/SC(=O)N(c3nc(N4CCCC4)nc(N4CCCC4)n3)C2=O)c(C)c1
answer-label: 0.0
--
compound: COc1ccc(NC(=O)CSc2nc(C)c(C(C)=O)n2-c2ccc(Cl)cc2)cc1
answer-label: 0.0
--
compound: COc1cccc(/C=C/C(=O)c2c(C)nc3ccccc3c2/C=C/c2ccc(C)cc2)c1OC
answer-label: 0.0
--
compound: COc1ccc(-c2nc3c(c(=O)n2C(C)=O)C(c2ccc(Cl)cc2)c2sc4c(Cl)cccc4c2O3)cc1 (stereo not given)
answer-label: 0.0
--
compound: C#CCOc1nc(C)cc(C)c1C#N
answer-label: 0.0
--
compound: N/C(=N/N=C/c1ccccc1)N/N=C\c1ccccc1
answer-label: 0.0
--
compound: Nc1nc(N)c2c(n1)NC(c1ccccc1)C1CCc3ccccc3C1=N2 (stereo not given)
answer-label: 0.0
--
compound: O=C(Nc1cccc(Oc2nnc(Cl)c3ccccc23)c1)Nc1ccc(Cl)c(C(F)(F)F)c1
answer-label: 1.0
--
compound: COC(=O)[C@]12CC[C@@H](C)[C@H](C)[C@@H]1C1=CC[C@@H]3[C@@]4(C)C(C=O)=C[C@@](C)(COS(C)(=O)=O)C4[C@H](O)C[C@@]3(C)[C@]1(C)CC2 (stereo not given in full)
answer-label: 1.0
--
compound: CC/C=C\C/C=C\C[C@H](O)C/C=C1/C(=O)C=C[C@@H]1C/C=C\CCCC(=O)O
answer-label: 0.0
--
compound: Cc1nn(-c2ccccc2)c(Oc2ccc(Cl)cc2)c1/C=N\N=c1/sc2ccccc2n1C
answer-label: 0.0
--
compound: NS(=O)(=O)c1cnccc1Sc1ccncc1S(N)(=O)=O
answer-label: 0.0
--
compound: O=c1[nH]ccc2nc(N3CCC(O)CC3)nc(Nc3ccc(N4CCOCC4)cc3)c12
answer-label: 0.0
--
compound: COC(=O)c1c2c(c(C)[n+]([O-])c1C)C(=O)C(NCc1ccc(F)c(Cl)c1)=CC2=O
answer-label: 1.0
--
compound: CN1CCN(CC(=O)Nc2nc(-c3cccc(NS(=O)(=O)c4cccc5c(N(C)C)cccc45)c3)cs2)CC1
answer-label: 0.0
--
compound: Cc1ccc(-c2cc(-c3cccnc3)[nH]c(=O)c2C#N)cc1
answer-label: 0.0
--
compound: COC(=O)[C@]12CC[C@@H](C)[C@H](C)[C@@H]1C1=CC[C@@H]3[C@@]4(C)C(C=O)=C[C@@](C)(COS(C)(=O)=O)[C@@H]4C(=O)C[C@@]3(C)[C@]1(C)CC2
answer-label: 0.0
--
compound: Cc1ccc(-n2nc3c(c(C#N)c2=O)CC(c2ccccc2Cl)C([N+](=O)[O-])=C3O)cc1 (stereo not given)
answer-label: 0.0
--
compound: CCCCn1c(=O)c2c(nc(NCCc3ccc(O)c(O)c3)n2CCC)n(CCCC)c1=O
answer-label: 0.0
--
compound: COc1cc(/C=C/C(=O)c2c(C)nc3ccccc3c2/C=C/c2ccc(C)cc2)cc(OC)c1OC
answer-label: 0.0
--
compound: Cn1cc(-c2csc(-c3cccc(F)c3)n2)c2cccnc21
answer-label: 1.0
--
compound: N#Cc1nc(C#N)c(Sc2ccccc2)c(Sc2ccccc2)c1Sc1ccccc1
answer-label: 1.0
--
compound: O=C(c1ccc(Nc2nccc(NCCCCNc3ccnc4cc(Cl)ccc34)n2)cc1)N1CCCCC1
answer-label: 0.0
--
compound: CC(=O)OC[C@H]1OC(Sc2sc(C(=O)c3ccc(Br)cc3)c(N)c2-c2nc3ccccc3s2)[C@H](OC(C)=O)[C@@H](OC(C)=O)[C@@H]1OC(C)=O (stereo not given in full)
answer-label: 0.0
--
compound: N#CC1=C(c2ccc(Br)cc2)NC(SCC(=O)c2ccc(Br)cc2)NC1=O (stereo not given)
answer-label: 0.0
--
compound: C=C(C)[C@@H]1CC[C@]2(C(=O)NC3CCCCC3)CC[C@]3(C)[C@H](CC[C@@H]4[C@@]5(C)CCC(=O)C(C)(C)[C@@H]5CC[C@]43C)[C@@H]12
answer-label: 0.0
--
compound: CN(C)c1ccc(/C=C/C(=O)c2cccc(Nc3nc(Nc4ccccc4)nc(Nc4ccccc4)n3)c2)cc1
answer-label: 0.0
--
compound: COc1cc(-c2n/c(=C\c3c(O)[nH]c4ccc(Cl)cc34)cc3c2=Nc2ccccc2-3)cc(OC)c1OC
answer-label: 0.0
--
compound: Nc1n[nH]c(-c2cc(Cl)ccc2O)c1-c1ccccc1
answer-label: 0.0
--
compound: O=C(c1ccccc1)N1N=C(c2ccccc2)CC1c1nnc2n(Cc3ccccc3)c(=O)c3c4c(sc3n12)CCCC4 (stereo not given)
answer-label: 0.0
--
compound: CC1(C)OC2C(CO[Si](C)(C)C(C)(C)C)OC(n3c(I)c(C#C[Si](C)(C)C)c(=O)[nH]c3=O)C2O1 (stereo not given)
answer-label: 0.0
--
compound: N=C1C(c2nc(-c3ccc(Br)cc3)cs2)=C(O)CN1Cc1cccnc1
answer-label: 0.0
